- Test system: PPARg DBDmut IVT, anti-PPARg (DBD mutation: PPARg1 K132A/R137A, NR concentration 270 nM)
- protocolDetails: PBM binding z-score (relative to random genomic background probes); higher = stronger binding; sequences stand for … in GC…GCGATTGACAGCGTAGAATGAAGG
Note to self: class labels come from recorded PBM binding z-score, ranges listed here: lo = under 0.3, mid = from 0.3 up to 1, hi = 1 and over

>>> df
                                  seq  label
0  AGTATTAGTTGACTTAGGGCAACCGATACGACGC     hi
1  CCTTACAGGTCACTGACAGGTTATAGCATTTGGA     hi
2  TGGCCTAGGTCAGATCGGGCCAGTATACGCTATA     lo
3  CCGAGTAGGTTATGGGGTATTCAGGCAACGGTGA     lo
4  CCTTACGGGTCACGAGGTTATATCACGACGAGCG    mid
5  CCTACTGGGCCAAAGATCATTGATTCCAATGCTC     lo
6  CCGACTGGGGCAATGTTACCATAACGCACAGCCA     lo
7  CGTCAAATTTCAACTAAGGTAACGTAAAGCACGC     hi
8  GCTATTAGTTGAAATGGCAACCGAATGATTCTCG    mid
9  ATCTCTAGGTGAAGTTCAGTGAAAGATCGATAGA     hi

====

- System: LXRb homodimer (NR concentration 270 nM)
- protocolDetails: PBM binding z-score (relative to random genomic background probes); higher = stronger binding; sequences stand for … in GC…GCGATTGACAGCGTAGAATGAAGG
Label satisfied for high-side PBM binding z-score (at or above 0.02) and not satisfied for low-side PBM binding z-score (below it).

>>> df
                                  seq          label
0  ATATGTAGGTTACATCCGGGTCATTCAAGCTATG      satisfied
1  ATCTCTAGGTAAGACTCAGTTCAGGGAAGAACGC      satisfied
2  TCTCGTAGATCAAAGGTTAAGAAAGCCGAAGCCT  not satisfied
3  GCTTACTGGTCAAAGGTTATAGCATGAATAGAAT  not satisfied
4  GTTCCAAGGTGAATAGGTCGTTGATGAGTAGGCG  not satisfied

====

- System: RARa homodimer (NR concentration 270 nM)
- protocolDetails: PBM binding z-score (relative to random genomic background probes); higher = stronger binding; sequences stand for … in GC…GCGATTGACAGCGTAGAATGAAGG
quantity: PBM binding z-score

>>> print(df.to_string())
                                  seq                             assayedsystem             quantity  recordedresult
0  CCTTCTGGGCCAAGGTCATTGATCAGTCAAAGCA  RARa homodimer (NR concentration 270 nM)  PBM binding z-score          -0.215
1  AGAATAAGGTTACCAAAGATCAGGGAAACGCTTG  RARa homodimer (NR concentration 270 nM)  PBM binding z-score           0.942
2  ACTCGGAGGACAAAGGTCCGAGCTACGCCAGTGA  RARa homodimer (NR concentration 270 nM)  PBM binding z-score          -0.387

====

- Tested on: RARa homodimer (NR concentration 270 nM)
- protocolDetails: PBM binding z-score (relative to random genomic background probes); higher = stronger binding; sequences stand for … in GC…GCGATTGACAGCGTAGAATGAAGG
Note to self: values exactly at 0.7 are yes (1). So PBM binding z-score at or above 0.7 is yes (1), below is no (0).

In [3]: df
Out[3]:
                                  seq                             assayedsystem    label
0  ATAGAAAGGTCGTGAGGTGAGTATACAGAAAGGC  RARa homodimer (NR concentration 270 nM)  yes (1)
1  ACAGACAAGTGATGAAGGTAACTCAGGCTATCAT  RARa homodimer (NR concentration 270 nM)   no (0)
2  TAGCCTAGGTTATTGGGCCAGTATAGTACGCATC  RARa homodimer (NR concentration 270 nM)   no (0)
3  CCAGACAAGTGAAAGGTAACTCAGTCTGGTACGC  RARa homodimer (NR concentration 270 nM)   no (0)
4  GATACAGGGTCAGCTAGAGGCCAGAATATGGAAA  RARa homodimer (NR concentration 270 nM)   no (0)
5  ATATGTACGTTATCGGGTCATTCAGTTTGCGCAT  RARa homodimer (NR concentration 270 nM)   no (0)

====

- Tested on: PPARg:RXRa 90nM:30nM, anti-RXR (NR concentration 90 nM, RXRa partner concentration 30 nM)
- protocolDetails: PBM binding z-score (relative to random genomic background probes); higher = stronger binding; sequences stand for … in GC…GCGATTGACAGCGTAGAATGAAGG
Response field class: enum, chosen by comparing PBM binding z-score against lower = under -0.04, middle = from -0.04 up to 2, upper = 2 and over

>>> print(df.to_string())
                                   seq                             assayedsystem   label
 0  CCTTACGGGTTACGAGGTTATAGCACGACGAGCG  PPARg:RXRa 90nM:30nM, anti-RXR (NR concentration 90 nM, RXRa partner concentration 30 nM)  middle
 1  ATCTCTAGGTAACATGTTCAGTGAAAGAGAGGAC  PPARg:RXRa 90nM:30nM, anti-RXR (NR concentration 90 nM, RXRa partner concentration 30 nM)  middle
 2  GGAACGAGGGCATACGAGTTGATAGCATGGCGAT  PPARg:RXRa 90nM:30nM, anti-RXR (NR concentration 90 nM, RXRa partner concentration 30 nM)  middle
 3  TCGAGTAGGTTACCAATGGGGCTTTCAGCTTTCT  PPARg:RXRa 90nM:30nM, anti-RXR (NR concentration 90 nM, RXRa partner concentration 30 nM)  middle
 4  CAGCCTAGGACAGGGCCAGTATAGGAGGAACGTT  PPARg:RXRa 90nM:30nM, anti-RXR (NR concentration 90 nM, RXRa partner concentration 30 nM)   lower
 5  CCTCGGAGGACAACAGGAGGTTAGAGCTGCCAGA  PPARg:RXRa 90nM:30nM, anti-RXR (NR concentration 90 nM, RXRa partner concentration 30 nM)   lower
 6  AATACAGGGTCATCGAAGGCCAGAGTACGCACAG  PPARg:RXRa 90nM:30nM, anti-RXR (NR concentration 90 nM, RXRa partner concentration 30 nM)   upper
 7  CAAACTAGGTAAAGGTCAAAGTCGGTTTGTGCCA  PPARg:RXRa 90nM:30nM, anti-RXR (NR concentration 90 nM, RXRa partner concentration 30 nM)   upper
 8  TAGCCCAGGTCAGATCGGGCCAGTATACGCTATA  PPARg:RXRa 90nM:30nM, anti-RXR (NR concentration 90 nM, RXRa partner concentration 30 nM)  middle
 9  GTACCAAGGTAAATAGGTCGTTGATGAGTAGGCG  PPARg:RXRa 90nM:30nM, anti-RXR (NR concentration 90 nM, RXRa partner concentration 30 nM)  middle
10  CGAACTAGGTCAAGGACACTGAATCTCCGCACGC  PPARg:RXRa 90nM:30nM, anti-RXR (NR concentration 90 nM, RXRa partner concentration 30 nM)   upper
11  GCAGCTAGGTCAGGTTGGTCAGCTAACGGGTACG  PPARg:RXRa 90nM:30nM, anti-RXR (NR concentration 90 nM, RXRa partner concentration 30 nM)   lower
12  ACAGACAGGTGATGAAGGTAACTCACGCTATCAT  PPARg:RXRa 90nM:30nM, anti-RXR (NR concentration 90 nM, RXRa partner concentration 30 nM)  middle
13  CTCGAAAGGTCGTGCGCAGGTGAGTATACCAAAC  PPARg:RXRa 90nM:30nM, anti-RXR (NR concentration 90 nM, RXRa partner concentration 30 nM)   upper

====

- System: RARb:RXRa (NR concentration 270 nM, RXRa partner concentration 90 nM)
- protocolDetails: PBM binding z-score (relative to random genomic background probes); higher = stronger binding; sequences stand for … in GC…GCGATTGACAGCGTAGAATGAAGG
Decide using PBM binding z-score: a value greater than or equal to 2 is Condition met, a smaller one is Condition not met.

In [3]: df
Out[3]:
                                  seq              label
0  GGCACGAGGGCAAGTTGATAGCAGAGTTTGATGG      Condition met
1  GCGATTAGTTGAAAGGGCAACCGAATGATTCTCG  Condition not met
2  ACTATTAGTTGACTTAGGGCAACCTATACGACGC  Condition not met
3  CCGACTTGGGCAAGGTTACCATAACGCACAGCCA  Condition not met
4  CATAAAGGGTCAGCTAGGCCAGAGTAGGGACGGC      Condition met
5  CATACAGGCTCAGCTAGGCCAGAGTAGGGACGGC  Condition not met
6  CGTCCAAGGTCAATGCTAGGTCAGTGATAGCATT      Condition met
